The measurements presented in this section are drawn from ChEMBL document CHEMBL5058577.

Tested on: U2OS
Procedure text: Multiplex assay against U2OS
Type: toxicity, cell-based
Settings: human, 48 h, 10 µM, compound concentration 10 uM, replicate 1
Kindly supply the reported Population Mitotic Cells (%) values for the records listed here.
Kindly provide the numeric value in % only, without the unit symbol.

## Task Population Mitotic Cells (%) for COc1cc2nc(N3CCN(C(=O)COc4c(OC)cccc4C(C)C)CC3)nc(N)c2cc1OC.Cl.Cl ?
## Result 11

## Task Population Mitotic Cells (%) for COc1c(Nc2ccc(S(C)(=O)=O)nc2C)ncnc1OC1CCN(C(=O)OC(C)C)CC1 [ADP-597] ?
## Result 20

## Task Population Mitotic Cells (%) for Cn1cc(C(=O)OCC2CCN(CCNS(C)(=O)=O)CC2)c2ccccc21 ?
## Result 11

## Task Population Mitotic Cells (%) for COc1cc2nc(N3CCN(C(=O)c4ccco4)CC3)nc(N)c2cc1OC.Cl [PRAZOSIN HYDROCHLORIDE] ?
## Result 3

## Task Population Mitotic Cells (%) for Nc1nc(-c2ccco2)c2cnn(Cc3ccccc3F)c2n1 ?
## Result 4

## Task Population Mitotic Cells (%) for Cc1cc(-c2ccc3c(c2)CC[C@H]3N2CC3(CCN(C(=O)Cc4cn5cc(C)sc5n4)CC3)C2)ncn1 [PF-5190457] ?
## Result 25

## Task Population Mitotic Cells (%) for CCn1c(-c2nc3cc(C(=O)N4CCCC(N)C4)ccc3n2C)cc2ccccc21.Cl (stereo not drawn) ?
## Result 21

## Task Population Mitotic Cells (%) for CC(C)(C)c1ccc(CSc2cnn(C(C)(C)C)c(=O)c2Cl)cc1 [PYRIDABEN] ?
## Result 10
